- Tested on: HCT-116
- EXPERIMENT_DESCRIPTION: NCI tumour cell line growth inhibition, 48 h
Active and inactive are the calls of the source. Cut-off read from the data, not from the text of the source: active = GI50 up to about 1.1 µM and inactive = higher.
MEASURED_PROPERTY: GI50

Past entries and their recorded results:
C=CCc1cc(OC)c2c(c1)C(O)CC(c1ccc(OC)c(OC)c1)O2 (stereo not drawn)    > 100 µM (inactive)
CCCCc1c2c(nc3c1CCC/C3=C\c1ccccc1)C(=O)C(CN(C)C)CC2 (stereo not drawn)    16 µM (inactive)

// moving on: another record for GI50
Input `CC[C@@]1(C[C@H]2C[C@@]3(C(=O)OC)c4[nH]c5ccccc5c4CCN3C2=O)COC2(CCCCC2)O1` . Output GI50: 30 µM (inactive)

---

This listing pairs molecules with measured GI50.
- System: NCI-H460
- EXPERIMENT_DESCRIPTION: NCI tumour cell line growth inhibition, 48 h
Activity calls are given as the source filed them. Cut-off read from the data, not from the text of the source: active = GI50 up to about 1.1 µM and inactive = higher.

O=C(O)c1ccc(N/C(=C(/C(Cl)=C(Cl)Cl)[N+](=O)[O-])n2nnc3ccccc32)cc1    > 100 µM (inactive)
CCCCc1ccc(Nc2nc(N)c3[nH]cnc3n2)cc1    22.9 µM (inactive)
NCC(=O)NC1(c2cc3ccccc3s2)CCCCC1    33.5 µM (inactive)

Input `NC1=Nc2ncccc2C(=O)NN1` . Output GI50: > 10 µM (inactive)

Input `O=C(CCCCCCCCC(=O)OCCCn1cc(C(=O)NC(=O)OCc2ccccc2)c(=O)[nH]c1=O)OCCCn1cc(C(=O)NC(=O)OCc2ccccc2)c(=O)[nH]c1=O` . Output GI50: > 100 µM (inactive)

Input `C[C@]12C[C@H](c3ccccc3)Nc3ccccc3N1C(c1ccccc1)=NO2` . Output GI50: 49.7 µM (inactive)

Input CCCSc1nc(-c2ccc(OC)cc2)c(C#N)c(=O)n1C1OC(COC(C)=O)C(OC(C)=O)C(OC(C)=O)C1OC(C)=O (stereo not given) . Output GI50: > 100 µM (inactive)

---

- System: SK-MEL-2
- EXPERIMENT_DESCRIPTION: NCI tumour cell line growth inhibition, 48 h
Where a name gives a salt, the structure may show the parent alone. Activity calls are given as the source filed them. No stated cut-off is given here; in the data, active = GI50 up to about 1.1 µM and inactive = higher.
Valid outcomes are listed here; reply with one: active, inactive

Consider the following illustrative entries.
O=C(O)c1cc(S(=O)(=O)N/N=C\c2c3ccccc3[n+]([O-])c3ccccc23)ccc1O    inactive
CNCCC=C1c2ccccc2CCc2ccccc21 [NORTRIPTYLINE HYDROCHLORIDE]    inactive
Nc1nc(SCC(=O)c2ccccc2)c2[nH]cnc2n1    inactive
COc1cc(/C=C/C(=O)c2sc(NNC(C)=O)nc2C)ccc1O    inactive
C#C[C@@H](OC(=O)c1ccc([N+](=O)[O-])cc1)[C@@H]1C[C@H]2O[C@@H]([C@H](C/C=C/CC)OC(=O)c3ccc([N+](=O)[O-])cc3)C[C@H]2O1    inactive
COc1ccc(/C=N/c2ccc(-c3nc4ccccc4s3)cc2)cc1OC    inactive

Test call for this compound, please: `CCCCCC/C=C/CCCCCCCc1cccc(O)c1C(=O)O`
inactive

Test call for this compound, please: COC(=O)C1=C(O)C(C(=O)OC)[C@]2(O)[C@H](C(=O)OC)[C@H]1C[C@@H](c1ccc(OC)cc1)[C@H]2C(=O)OC (stereo partly specified)
inactive

Test call for this compound, please: `CC(C)NC(=O)OCc1c(COC(=O)NC(C)C)c(-c2cc[n+](COC(=O)C(C)(C)C)cc2)n2c1CCC2`
inactive

Test call for this compound, please: `CCCCn1cc[n+](-c2nc3ccccc3n2C)c1`
inactive
